# key: entry, value: folding stability dG
B1: HEEH_KT_rd6_0007 (parent)
chain: SIEEEIKKAEEAKEKGKTFIHGDFVATTEELLDELLKRLRKKL

Variants of: B1
Assay: folding stability dG (cDNA display proteolysis); higher = more stable
Details: PBS, room temperature
The reply should be a number in kcal/mol, with the unit left off.

Before answering, review these 5 worked examples.
SIEEEIKKAEEAKEKGKTFIHGDFVAMTEELLDELLKRLRKKL [T27M]	1.17
SIEEEIKKAEEAKEKGKTFIHGDFVATTEELLDELAKRLRKKL [L36A]	0.394
SIEEEIKKAEEHKEKGKTFIHGDFVATTEELLDELLKRLRKKL [A12H]	0.753
SIEEEIKKAEEAKEKGKTFIHGDFVATTELLLDELLKRLRKKL [E30L]	1.14
SIEEEIKKAEEAKEKGKTKIHGDFVATTEELLDELLKRLRKKL [F19K]	0.811

q: Look up folding stability dG: SIEEEIKKAEEAKEKGKTFIPGDFVATTEELLDELLKRLRKKL [H21P]
a: 0.759

q: Look up folding stability dG: SIEEEIKKAEEAKEKGKTFIHGDFVATTEELLDELLKRLRKKM [L43M]
a: 0.858
